experiment: Apical-to-basal transwell transport across MDCK II cell monolayer; conditions: dog, MDCK, Permeability ± SD in the presence of morphine, M6G 100 µg/ml + morphine 61,820 ng/ml; MDCK II
assay-readout: Papp at 100 min, 100 µg/ml (×10⁻⁶ cm/s)
Express your answer in ×10⁻⁶ cm/s, writing the number without its unit.

Determine from records and report Papp at 100 min, 100 µg/ml for CN1CC[C@]23c4c5ccc(O)c4O[C@H]2[C@@H](O[C@@H]2O[C@H](C(=O)O)[C@@H](O)[C@H](O)[C@H]2O)C=C[C@H]3[C@H]1C5 [M6G, Morphine-6-glucuronide] 3.31
